Reference source: the supplement of paper PMC8671470

- Test system: SHI-1
- run-description: cell viability (% survival relative to DMSO control, bortezomib = 0%); higher = less cytotoxic
- measurement-parameters: 100 nM; 72 h
Please go through the items and note down their cell viability.

Solved entries:
| compound | study-system | cell viability |
| --- | --- | --- |
| Cc1cn([C@H]2C[C@H](O)[C@@H](COP(=O)(O)OP(=O)(O)O)O2)c(=O)[nH]c1=O [Thymidine diphosphate] | SHI-1 | 110% |
| CC[C@H](C)C(=O)O[C@H]1C[C@@H](C)C=C2C=C[C@H](C)[C@H](CC[C@@H]3C[C@@H](O)CC(=O)O3)[C@H]21 | SHI-1 | 104% |
| O=C(C1CC1)N1CC[C@@H](C=C2NNC(=O)N2c2ccc(-c3ccc4occc4c3)cc2)C1 | SHI-1 | 108% |
| COc1ccc(C(=O)Nc2c(Cl)cncc2Cl)cc1OC1CCCC1 | SHI-1 | 106% |
| COc1ccc(S(=O)(=O)N2CCN(S(=O)(=O)c3ccc4c(c3)OCCO4)CC2)cc1 | SHI-1 | 96.9% |

Shifting focus to the compound that follows.
Measured cell viability, "O=c1cc(-c2ccccc2)oc2cc(O)c(O)c(O)c12" : 126%

----------
- System: myeloid leukemia patient primary cells Pat.4
- run-description: cell viability (% survival relative to DMSO control); higher = less cytotoxic
- measurement-parameters: 1 nM; 72 h
Provide the reported cell viability of each item.
Give the number first and the unit second.

| compound | study-system | cell viability |
| --- | --- | --- |
| N#CC(C#N)=NNc1ccc(OC(F)(F)F)cc1 [FCCP] | myeloid leukemia patient primary cells Pat.4 | 89% |
| COc1cc(/C=C/C(=O)N2CCC=CC2=O)cc(OC)c1OC [Piperlongumine] | myeloid leukemia patient primary cells Pat.4 | 82.6% |
| O=C(O)C1=CC(=C(c2ccc(O)c(C(=O)O)c2)c2ccc(O)c(C(=O)O)c2)C=CC1=O [Aurintricarboxylic acid] | myeloid leukemia patient primary cells Pat.4 | 99.3% |

Form: item O=C(O)Cn1nnc(-c2cc(N3CCC(Oc4cc(F)ccc4Br)CC3)no2)n1 [MK-8245] ; test system myeloid leukemia patient primary cells Pat.4; cell viability: 97.3%

----------
- System: MOLM-13
- run-description: cell viability (% survival relative to DMSO control, bortezomib = 0%); higher = less cytotoxic
- measurement-parameters: 1 nM; 72 h
measured-quantity: cell viability (%)
Answers are plain numbers, in %.

| compound | cell viability (%) |
| --- | --- |
| O[C@H]1[C@H]2[C@H](O)CCCN2C[C@H]1O [Swainsonine] | 97.8 |
| Cc1cn([C@H]2C[C@H](O)[C@@H](COP(=O)(O)OP(=O)(O)O)O2)c(=O)[nH]c1=O [Thymidine diphosphate] | 108 |
| Oc1ccc(Nc2nc(-c3ccc(Cl)cc3)cs2)cc1 [SKI II] | 80 |
| O=C1O/C(=C/Br)CCC1c1cccc2ccccc12 (stereo not given) [Bromoenol Lactone] | 96.5 |

Turning now to a further record.
// cell viability lookup, compound = "COc1ccc(-c2ccccc2)cc1NS(=O)(=O)c1cc(Cl)cc(Cl)c1O" , result: 101

----------
- System: K-562
- measurement-parameters: 72 h
Record form. Attribute: IC50 (cell viability). Fill in for each entry.
Give bare numbers, in µM.

| compound | result-unit | numeric-value |
| --- | --- | --- |
| O=C(NNc1ccccc1)c1ccncc1 [PluriSln 1] | µM | 9.7 |
| N#CC(C#N)=NNc1ccc(OC(F)(F)F)cc1 [FCCP] | µM | 1.73 |
| Oc1ccc(Nc2nc(-c3ccc(Cl)cc3)cs2)cc1 [SKI II] | µM | 2.51 |

Quick note, IC50 (cell viability) for CC(C)c1onc(-c2c(Cl)cccc2Cl)c1COc1ccc(/C=C/c2cccc(C(=O)O)c2)c(Cl)c1 [GW4064] landed at 6.26
